B1: VPS39 (parent)
chain: QQVKCIITEEKVCMVCKKKIGNSA

# Variants of: B1
# PROTOCOL DESCRIPTION: protein stability index of a GFP-peptide fusion (GPS, HEK-293T) (PSI 1-6); higher = more stable;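 note: lentivirally expressed fusions sorted by FACS into six bins by GFP to DsRed ratio, PSI derived from sequencing read proportions per bin multiplied by bin number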
# RUN CONDITIONS: c terminus: a fixed tail appended
# protein stability index annotations
Enter a number only.

GET /values?readout=protein stability index&item= `V15G`
2.71

GET /values?readout=protein stability index&item= `T8Y`
2.6

GET /values?readout=protein stability index&item= `I20D`
3.51

GET /values?readout=protein stability index&item= `K11I`
2.44

GET /values?readout=protein stability index&item= `M14H`
3.13

GET /values?readout=protein stability index&item= `I20T`
2.89

GET /values?readout=protein stability index&item= `T8D`
3.08

GET /values?readout=protein stability index&item= `Q2W`
2.72

GET /values?readout=protein stability index&item= `C13Y`
2.91

GET /values?readout=protein stability index&item= `K17I`
1.74

GET /values?readout=protein stability index&item= `K18V`
1.78

GET /values?readout=protein stability index&item= `C13N`
4.4
